- Test system: TK-10
- Assay remarks: NCI tumour cell line growth inhibition, 48 h
Activity calls are given as the source filed them. Cut-off read from the data, not from the text of the source: active = GI50 up to about 1.1 µM and inactive = higher. Peptide text beside a SMILES is read from it. * marks the point of attachment. Boc = CC(C)(C)OC(=O)*; OBn = c1ccc(CO*)cc1; Bn = c1ccc(C*)cc1
Lab note: assign the record to one of active, inactive

q: Recorded test outcome, item C(=N/c1ccccc1C1SCCCS1)/c1ccccc1
a: inactive

q: Recorded test outcome, item CC(C)CC(NC(=O)C(CCC(=O)OCc1ccccc1)NC(=O)OC(C)(C)C)C(=O)NC(COCc1ccccc1)C(=O)NC(Cc1ccccc1)C(=O)O (centres undefined) (Boc-E(OBn)LS(Bn)F-OH; configuration not given here)
a: inactive

q: Recorded test outcome, item CC(=O)NC(C)(C)C1CCC(C)CC1 (centres undefined)
a: inactive

q: Recorded test outcome, item CCCC(=O)NC(NC1CCCCC1)(C(=O)OCC)C(F)(F)F (centres undefined)
a: inactive

q: Recorded test outcome, item Cc1cc(C)n(-c2ccnc3cc(Cl)ccc23)n1
a: inactive

q: Recorded test outcome, item CCCCCCCCCC(=O)CC(=O)c1ccc(O)cc1O
a: inactive

q: Recorded test outcome, item CC1(C)CC(=O)C2=C(C1)C(c1ccccc1Cl)C1C(=O)CC(C)(C)CC1(O)O2 (centres undefined)
a: inactive

q: Recorded test outcome, item COC(OC)C1OC(CO)C(n2ccc(N)nc2=O)C1O (centres undefined)
a: inactive

q: Recorded test outcome, item CC(C)=CCc1c(OC(=O)c2c(C)cc(O)cc2O)cc(CO)c(CO)c1O
a: inactive

q: Recorded test outcome, item Cc1cc(S(=O)(=O)Nc2nc(N)nc(N3N=CCC3C)n2)c(S)cc1Cl (centres undefined)
a: inactive

q: Recorded test outcome, item COc1cc(/C=N\O[Si](C)(C)C(C)(C)C)ccc1O[Si](C)(C)C(C)(C)C
a: inactive

q: Recorded test outcome, item COc1ccc2cc(C(C)C(O)c3cc(F)c(F)c(F)c3F)ccc2c1 (centres undefined)
a: inactive

q: Recorded test outcome, item C[C@H](CC[C@@H](O)C(C)(C)O)[C@H]1CC[C@@]2(C)[C@@H]3CC=C4[C@@H](CC[C@H](O)C4(C)C)[C@]3(C)C(=O)C[C@]12C [BRYODULCOSIGENIN]
a: inactive

q: Recorded test outcome, item CO[C@H]1C[C@H](O[C@H]2CC[C@]3(C=O)[C@H]4CC[C@]5(C)[C@@H](C6=CC(=O)OC6)CC[C@]5(O)[C@@H]4CC[C@]3(O)C2)O[C@H](C)[C@H]1O[C@@H]1O[C@H](CO[C@@H]2O[C@H](CO)[C@@H](O)[C@H](O)[C@H]2O)[C@@H](O)[C@H](O)[C@H]1O
a: active

q: Recorded test outcome, item COC1(OC)CC2C(=O)N(Cc3ccccc3)C1CC2S(=O)(=O)c1ccccc1 (centres undefined)
a: inactive

q: Recorded test outcome, item O=C1CN(c2ccc(Cl)cc2)C(=O)CN1CCN1CC(=O)N(c2ccc(Cl)cc2)CC1=O
a: inactive

q: Recorded test outcome, item COc1cccc(C2c3cc4c(cc3OC(N3CCCC3)C2C)OCO4)c1OC (centres undefined)
a: inactive

q: Recorded test outcome, item O=C(NC1C(O)C(O)C(CO)OC1n1cc(F)c(=O)[nH]c1=O)OCc1ccccc1 (centres undefined)
a: inactive

q: Recorded test outcome, item Cn1c(=O)c2[nH]c(CCC(=O)O)nc2n(C)c1=O
a: inactive

q: Recorded test outcome, item CC(=O)O[C@H]1CC[C@@]2(C)C(=C/C(=N\[N+](=O)[O-])[C@H]3C4CCC([C@H](C)CCCC(C)C)[C@@]4(C)CCC32)C1 (some centres undefined)
a: inactive

q: Recorded test outcome, item O=C(/N=N/c1ccc([N+](=O)[O-])cc1)NNc1ccc([N+](=O)[O-])cc1
a: inactive

q: Recorded test outcome, item O=P1(C(O)c2ccccc2)N(Cc2ccccc2)[C@@H]2CCCC[C@H]2N1Cc1ccccc1 (some centres undefined)
a: inactive

q: Recorded test outcome, item O=C(O)C(O)C(O)C(O)C(O)c1nc2ccccc2s1 (centres undefined)
a: inactive

q: Recorded test outcome, item CCC1C(c2ccccc2O)c2cc3c(cc2OC1N1CCOCC1)OCO3 (centres undefined)
a: inactive

q: Recorded test outcome, item COC(=O)c1ccccc1OCc1cc(=O)oc2ccc(C)cc12
a: inactive

q: Recorded test outcome, item CC(OC(=O)C(CC(=O)OC(C)(C)C)NC(=O)OC(C)(C)C)C(=O)OCc1ccccc1 (centres undefined)
a: inactive

q: Recorded test outcome, item COc1ccc(-c2nnc(-c3nsc4ccccc34)o2)cc1
a: inactive

q: Recorded test outcome, item c1cn[nH]c1 [PYRAZOLE]
a: inactive

q: Recorded test outcome, item CCCCCCCCCCCCCCCCCCNC(=S)N/C=C1\C(=O)Nc2ccccc2C1=O
a: inactive

q: Recorded test outcome, item CN1C(=O)N/C(=C\c2ccc(S(=O)(=O)N/N=C/c3ccccc3)cc2)C1=O
a: inactive

q: Recorded test outcome, item C#CCN(C(=O)C(F)(F)F)c1ccc(C(=O)c2ccc(N(CC#C)C(=O)C(F)(F)F)cc2)cc1
a: inactive

q: Recorded test outcome, item COc1ccc(OC)c2c3c(ccc12)C(c1ccccc1)OC3=O (centres undefined)
a: inactive

q: Recorded test outcome, item CC(=O)OCCCCn1cnc2nc(Nc3ccccc3)nc(Cl)c21
a: inactive

q: Recorded test outcome, item CC[C@H](C)C1=C(O)[N@+]2([O-])Oc3ccc(-c4c(O)c(O)c(-c5ccc(O)cc5)c(OC(C)=O)c4OC(C)=O)cc3O[C@]2([C@@H](C)CC)C(=O)N1O
a: inactive
